Target: epithelial sodium channel (ENaC) (Homo sapiens, UniProt P37088+P51168+P51170)
Sequence (P37088 whole entry): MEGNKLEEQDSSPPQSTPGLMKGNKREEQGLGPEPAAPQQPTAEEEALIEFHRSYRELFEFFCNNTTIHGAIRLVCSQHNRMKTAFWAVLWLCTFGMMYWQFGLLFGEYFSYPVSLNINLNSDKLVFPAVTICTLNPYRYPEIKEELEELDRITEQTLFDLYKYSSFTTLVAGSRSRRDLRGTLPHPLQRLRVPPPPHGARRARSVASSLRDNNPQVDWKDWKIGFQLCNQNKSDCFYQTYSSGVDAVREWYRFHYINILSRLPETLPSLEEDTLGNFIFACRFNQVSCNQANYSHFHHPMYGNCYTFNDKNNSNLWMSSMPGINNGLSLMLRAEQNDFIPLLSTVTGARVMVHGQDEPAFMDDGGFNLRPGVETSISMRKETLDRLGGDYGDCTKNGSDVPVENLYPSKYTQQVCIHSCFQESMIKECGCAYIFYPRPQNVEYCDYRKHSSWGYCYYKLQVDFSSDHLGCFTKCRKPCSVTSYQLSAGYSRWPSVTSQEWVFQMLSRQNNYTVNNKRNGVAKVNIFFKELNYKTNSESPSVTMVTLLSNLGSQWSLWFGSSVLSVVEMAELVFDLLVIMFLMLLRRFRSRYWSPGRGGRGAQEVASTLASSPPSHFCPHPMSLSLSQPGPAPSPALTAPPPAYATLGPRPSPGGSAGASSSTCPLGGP
Sequence (P51168 whole entry): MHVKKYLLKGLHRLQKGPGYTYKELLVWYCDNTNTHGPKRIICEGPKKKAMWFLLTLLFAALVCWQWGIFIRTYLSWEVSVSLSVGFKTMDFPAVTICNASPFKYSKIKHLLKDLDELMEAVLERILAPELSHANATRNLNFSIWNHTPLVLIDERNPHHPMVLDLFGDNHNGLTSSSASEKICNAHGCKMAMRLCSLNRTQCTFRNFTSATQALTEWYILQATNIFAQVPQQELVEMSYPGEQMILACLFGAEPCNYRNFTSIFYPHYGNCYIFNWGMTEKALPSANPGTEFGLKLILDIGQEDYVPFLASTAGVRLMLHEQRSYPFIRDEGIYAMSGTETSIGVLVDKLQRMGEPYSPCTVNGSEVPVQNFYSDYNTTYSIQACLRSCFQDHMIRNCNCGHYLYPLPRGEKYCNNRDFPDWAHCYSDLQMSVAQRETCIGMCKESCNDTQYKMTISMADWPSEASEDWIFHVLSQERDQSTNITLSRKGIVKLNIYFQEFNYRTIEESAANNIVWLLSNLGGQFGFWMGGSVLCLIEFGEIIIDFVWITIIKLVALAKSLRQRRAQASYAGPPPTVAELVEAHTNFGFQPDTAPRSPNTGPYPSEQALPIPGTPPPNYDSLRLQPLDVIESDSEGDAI
Sequence (P51170 whole entry): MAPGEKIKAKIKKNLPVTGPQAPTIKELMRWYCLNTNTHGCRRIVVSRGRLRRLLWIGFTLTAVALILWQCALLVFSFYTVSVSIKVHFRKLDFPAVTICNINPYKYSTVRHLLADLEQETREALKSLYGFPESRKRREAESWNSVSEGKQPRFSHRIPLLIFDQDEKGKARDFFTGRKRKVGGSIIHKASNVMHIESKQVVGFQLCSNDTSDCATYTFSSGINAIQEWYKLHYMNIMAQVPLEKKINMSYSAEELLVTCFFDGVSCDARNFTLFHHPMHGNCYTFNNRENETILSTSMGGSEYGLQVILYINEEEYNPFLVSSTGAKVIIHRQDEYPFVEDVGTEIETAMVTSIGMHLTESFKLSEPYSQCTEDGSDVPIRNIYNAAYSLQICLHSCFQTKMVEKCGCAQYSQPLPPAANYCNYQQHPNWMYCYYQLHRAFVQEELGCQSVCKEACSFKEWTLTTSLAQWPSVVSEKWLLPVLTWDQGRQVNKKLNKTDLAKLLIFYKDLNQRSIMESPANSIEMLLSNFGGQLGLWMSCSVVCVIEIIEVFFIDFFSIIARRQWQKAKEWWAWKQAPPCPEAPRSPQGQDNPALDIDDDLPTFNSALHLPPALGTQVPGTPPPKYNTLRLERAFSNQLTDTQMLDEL
Experiment: Short circuit current (ISC) measurements in human bronchial epithelial cells, inhibition of the amiloride-sensitive ISC
Conditions: air-liquid interface culture, Ussing chamber, compound added to the apical chamber
pIC50: −log10 of the molar value.
experimental endpoint: pIC50

a. N=C(NCC1CCC(CNC(=N)NC(=O)c2nc(Cl)c(N)nc2N)CC1)NC(=O)c1nc(Cl)c(N)nc1N (centres unmarked)
b. N=C(NC(=O)c1nc(Cl)c(N)nc1N)N[C@H]1CC[C@H](NC(=N)NC(=O)c2nc(Cl)c(N)nc2N)CC1
Qu. Form field 'greater pIC50' accepts a or b ; which applies? Record your answer as the label of the chosen record.
Ans. b
(b: 9.70, a: 8.24)
